system: L1210 leukemia ip in BDF1 mice, survival T/C; assay: NCI In Vivo Anticancer Drug Screen. Data for tumor model L1210 Leukemia (intraperitoneal) in B6D2F1 (BDF1) mice; conditions: endpoint: mean survival time; dose: 25.0 mg/kg/injection; schedule: Q01DX009 (ip); vehicle: water; higher = longer survival
Toxic doses and inconclusive results are not listed.
compounds and their reported T/C

CCN(CC)CCCC(C)NC(=O)c1cc(=O)[nH]c(=O)[nH]1 (centres undefined) : 106 % of control

[Q] Quote T/C reported for `CN(Cc1ccccc1)/N=N/c1nc[nH]c1C(N)=O` please.
[A] 122 % of control

[Q] Please give measured T/C of the following entry: NC(CCC(=O)NC(CSCCC(=O)c1ccccc1)C(=O)NCC(=O)O)C(=O)O (centres undefined)
[A] 96 % of control

[Q] Give the reported value of T/C for this record: `CN(C)Cc1cccc(N)c1`
[A] 100 % of control

* * *

tested on: L1210 leukemia ip in BDF1 mice, survival T/C; assay: NCI In Vivo Anticancer Drug Screen. Data for tumor model L1210 Leukemia (intraperitoneal) in B6D2F1 (BDF1) mice; settings: endpoint: mean survival time; dose: 400.0 mg/kg/injection; schedule: Q01DX001 (ip); vehicle: saline; higher = longer survival
Inconclusive results and toxic doses are left out.
Reported T/C values follow for various molecules

CNc1c(Cl)n(C)c(=O)n(C)c1=O : 101 % of control
c1cncc(Nc2c3ccccc3nc3ccccc23)c1 : 94 % of control
O=[N+]([O-])c1ccccc1N=Nc1c(O)[nH]c2ccc(Br)cc12 : 113 % of control
COCC1OC(OC)C(NC(C)=O)C(OC)C1OC (stereo not drawn) : 96 % of control
[N-]=[N+]=CC(=O)NCC(=O)NN : 106 % of control

[Q] Given `C/C(CCO)=N\NC(N)=S` , respond with its T/C.
[A] 101 % of control

[Q] State its T/C for this molecule: `O=C(CCCC(=O)N/N=C/c1cccc([N+](=O)[O-])c1)N/N=C\c1cccc([N+](=O)[O-])c1`
[A] 91 % of control

[Q] Supply reported T/C belonging to this molecule: `CN(C)C(=S)S`
[A] 100 % of control

[Q] Assign T/C to the following record: COC1C(N)C(O)OC(CO)C1O (stereo not drawn)
[A] 94 % of control

[Q] Name the recorded T/C of the item CC(=O)OC/C=C(\C)CCC1OC1(C)C (stereo not drawn) in your answer.
[A] 114 % of control

* * *

Listed next: entries and their corresponding T/C.
test system: L1210 leukemia ip in BDF1 mice, survival T/C; assay: NCI In Vivo Anticancer Drug Screen. Data for tumor model L1210 Leukemia (intraperitoneal) in B6D2F1 (BDF1) mice; conditions: endpoint: mean survival time; dose: 50.0 mg/kg/injection; schedule: Q01DX009 (ip); vehicle: Klucel (hydroxypropylcellulose) (HPC); higher = longer survival
Toxic doses and inconclusive results are not listed.

The cases that follow already have their T/C on record.
CC(=O)NC1CCC(Br)CC1 (stereo unspecified) : 94 % of control
CCCCCCCCN(C)N=Nc1ccccc1C(=O)O : 122 % of control
O=NC1C(Cl)C2CC1C1C(Br)C(Br)CC21 (stereo unspecified) : 93 % of control
CCC(C)c1cc(CN(C)C)cc(C(C)CC)c1O (stereo unspecified) : 96 % of control
O=[N+]([O-])c1cccc(-[n+]2cc([O-])on2)c1 : 94 % of control

Switching to the query record.
[Q] Determine from records and report T/C for `Nc1nc(N)nc(CCP(CCc2nc(N)nc(N)n2)CCc2nc(N)nc(N)n2)n1`
[A] 108 % of control
